Biological target: intestinal alkaline phosphatase (Alpi), Mus musculus
Test: activators of mouse IAP enzyme, SAR follow-up, biochemical, luminescence (AID 493146)
Details: purified mouse IAP, luminescent substrate, activation
Active and inactive are the calls of the source. How the calls were made is not given here.
Outcomes: T for active, F for inactive

- molecule: "O=C(CN1C(=O)/C(=C/c2ccco2)SC1=S)Nc1ccc2nccnc2c1"
  category: "F"
- molecule: "COc1ccc(NC(=S)NCCC(c2ccccc2)c2ccccc2)cc1"
  category: "T"
- molecule: "N#Cc1c(SCC(=O)Nc2nccs2)sc2c(O)cc(=O)[nH]c12"
  category: "F"
- molecule: "CCN(C(=O)CN1C(=O)/C(=C\\c2ccco2)SC1=S)C1CCS(=O)(=O)C1 (centres undefined)"
  category: "F"
- molecule: "CC(C(=O)Nc1ccc(C(=O)O)c(O)c1)N1C(=O)/C(=C\\c2ccco2)SC1=S (centres undefined)"
  category: "F"
- molecule: "O=C(N/N=C/C1CC=CCC1)c1cc(O)c(O)c(O)c1 (centres undefined)"
  category: "F"
- molecule: "COc1ccc(NC(=O)CCNS(=O)(=O)c2ccc3[nH]c(=O)oc3c2)cc1Cl"
  category: "F"
- molecule: "COc1cc(C(=O)NN=Cc2ccccn2)cc(OC)c1OC"
  category: "F"
- molecule: "CCOc1cccc(NC(=O)CSc2sc3c(O)cc(=O)[nH]c3c2C#N)c1"
  category: "F"

The origin of these recorded values is PubChem BioAssay AID493146.
